EXPERIMENTAL DETAILS: Dissolved concentration of the L-amino acid in the reaction mixture after completion of the reaction (HPLC)
ASSAY CONDITIONS: L-amino acid dissolvable in reaction mixture after reaction of the N-succinyl-DL-amino acid with liquid cultures of E. coli HB101 (pNHK) and E. coli HB101 (pNIG), substrate solution pH 8, 45° C.
dissolved concentration reference

COMPOUND: C=CCCCCC[C@H](N)C(=O)O
REPORTED METRIC: dissolved concentration
RECORDED VALUE: ≤ 0.5 % by weight

dissolved concentration for N[C@@H](Cc1ccccc1)C(=O)O [L-phenylalanine, reference compound] is 4 % by weight

Record "N[C@@H](Cc1cccc(F)c1)C(=O)O" , field dissolved concentration: ≤ 0.5 % by weight

The measured dissolved concentration associated with "N[C@@H](Cc1ccc(Br)cc1)C(=O)O" reads ≤ 0.5 % by weight
